Assay: Plasma stability assay, human plasma
Format: in vitro ADME
Settings: 37° C., 2 μM, 15 min (as headed)
Note to self: use Criterion met only for % remaining at time point in minutes, 15 min readings below 90%; a reading exactly at 90% still gets Criterion not met.

COMPOUND: C=C1CC[C@@]2(O)C3Cc4ccc(OC(=O)OCCCCCCCCCCCC)c5c4[C@@]2(CCN3CC2CC2)[C@H]1O5 [Compound 6]
QUALITATIVE_LABEL: Criterion not met

COMPOUND: CCCCCCCCCCCCCCCC(=O)OC1CCCn2c1nc(C)c(CCN1CCC(c3noc4cc(F)ccc34)CC1)c2=O (centres unmarked) [Paliperidone palmitate, reference compound]
QUALITATIVE_LABEL: Criterion not met

COMPOUND: CCCCCCCCCCCC(=O)OCN1C(=O)CCc2ccc(OCCCCN3CCN(c4cccc(Cl)c4Cl)CC3)cc21 [Aripiprazole lauroxil, reference compound]
QUALITATIVE_LABEL: Criterion not met

COMPOUND: C=C1CC[C@@]2(O)C3Cc4ccc(OCOC(=O)OCCCCCCCCCCCC)c5c4[C@@]2(CCN3CC2CC2)[C@H]1O5 [Compound 24]
QUALITATIVE_LABEL: Criterion not met

COMPOUND: C=C1CC[C@@]2(O)C3Cc4ccc(OC(=O)CCCCCCC/C=C/CCCCCCCC)c5c4[C@@]2(CCN3CC2CC2)[C@H]1O5 [Compound 15]
QUALITATIVE_LABEL: Criterion met
